Numbers sourced from patent US12486253B2.

test_system: BRAF V600E (Homo sapiens, UniProt P15056, V600E)
Sequence (P15056 whole entry V600E): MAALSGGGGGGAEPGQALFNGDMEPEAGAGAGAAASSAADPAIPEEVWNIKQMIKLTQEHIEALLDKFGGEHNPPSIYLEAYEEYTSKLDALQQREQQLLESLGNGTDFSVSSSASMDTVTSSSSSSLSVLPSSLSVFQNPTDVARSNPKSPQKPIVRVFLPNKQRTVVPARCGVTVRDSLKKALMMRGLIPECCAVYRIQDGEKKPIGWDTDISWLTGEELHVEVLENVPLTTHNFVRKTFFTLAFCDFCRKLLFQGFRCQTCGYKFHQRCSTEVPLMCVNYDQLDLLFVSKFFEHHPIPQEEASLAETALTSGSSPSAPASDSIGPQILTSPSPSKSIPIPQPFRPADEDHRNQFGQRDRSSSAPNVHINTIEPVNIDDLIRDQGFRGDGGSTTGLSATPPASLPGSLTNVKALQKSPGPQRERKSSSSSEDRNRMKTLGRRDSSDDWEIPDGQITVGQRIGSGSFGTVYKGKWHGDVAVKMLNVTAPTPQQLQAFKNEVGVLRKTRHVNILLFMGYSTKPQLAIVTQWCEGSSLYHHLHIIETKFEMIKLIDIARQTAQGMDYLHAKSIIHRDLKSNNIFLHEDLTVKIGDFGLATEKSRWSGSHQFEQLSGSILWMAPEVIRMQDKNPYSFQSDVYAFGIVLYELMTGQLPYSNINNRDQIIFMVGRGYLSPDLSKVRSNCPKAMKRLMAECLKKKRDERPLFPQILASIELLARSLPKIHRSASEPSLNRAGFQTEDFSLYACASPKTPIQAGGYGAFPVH
assay_notes: HiBiT cellular BRAF^V600E degradation assay
Assay type: cell-based
test_context: A375.10 cells, 24 h; concentration at which 50% of total cellular BRAF^V600E is degraded
parameter: DC50 (µM)

Past entries and their recorded results:
molecule	test_system	reading
CCN(C)S(=O)(=O)Nc1ccc(F)c(Oc2ccc3ncn(-c4ccc(N5CCN(C(=O)CN6CCC(c7ccc(NC8CCC(=O)NC8=O)cc7F)CC6)CC5)nc4)c(=O)c3c2)c1C#N (stereo not shown)	BRAF V600E (Homo sapiens, UniProt P15056, V600E)	0.0158
CCN(C)S(=O)(=O)Nc1ccc(F)c(Oc2ccc3ncn([C@H]4COC5(CCN(C(=O)CN6CC[C@H](c7cc8c(cc7F)c(N7CCC(=O)NC7=O)nn8C)C(F)(F)C6)CC5)C4)c(=O)c3c2)c1C#N (single isomer, unassigned)	BRAF V600E (Homo sapiens, UniProt P15056, V600E)	0.0375
CCN(C)S(=O)(=O)Nc1ccc(F)c(Oc2ccc3ncc(N4CCC5(CCN(C(=O)CN6CCC(c7ccc(NC8CCC(=O)NC8=O)cc7F)CC6)CC5)C4)nc3c2)c1C#N (stereo not shown)	BRAF V600E (Homo sapiens, UniProt P15056, V600E)	0.0217
CCN(C)S(=O)(=O)Nc1ccc(F)c(Oc2ccc3ncn(-c4cnn(C5CCN(C(=O)CN6CCC(c7ccc(C8CCC(=O)NC8=O)cc7F)CC6)CC5)c4)c(=O)c3c2)c1C#N (stereo not shown)	BRAF V600E (Homo sapiens, UniProt P15056, V600E)	0.044
N#Cc1c(NS(=O)(=O)N2CCC(F)(F)C2)ccc(F)c1Oc1ccc2ncn(-c3cnc(N4CCN(C(=O)CN5CCC(c6ccc(N[C@@H]7CCC(=O)NC7=O)cc6F)CC5)CC4)nc3)c(=O)c2c1	BRAF V600E (Homo sapiens, UniProt P15056, V600E)	0.0507
CN(C1CC1)S(=O)(=O)Nc1ccc(F)c(Oc2ccc3ncn(-c4cnc(N5CCN(C(=O)CN6CCC(c7ccc(N[C@H]8CCC(=O)NC8=O)cc7F)CC6)CC5)nc4)c(=O)c3c2)c1C#N	BRAF V600E (Homo sapiens, UniProt P15056, V600E)	0.0207
CO[C@@H]1CCN(S(=O)(=O)Nc2ccc(F)c(Oc3ccc4ncn(-c5cnc(N6CCN(C(=O)CN7CCC(c8ccc(N[C@H]9CCC(=O)NC9=O)cc8F)CC7)CC6)nc5)c(=O)c4c3)c2C#N)C1	BRAF V600E (Homo sapiens, UniProt P15056, V600E)	0.00991
CCN(C)S(=O)(=O)Nc1ccc(F)c(Oc2ccc3ncn(-c4cnc(N5CCN(C(=O)CN6CCC(c7ccc(N[C@H]8CCC(=O)NC8=O)cc7F)CC6)CC5)nc4)c(=O)c3c2OC)c1C#N	BRAF V600E (Homo sapiens, UniProt P15056, V600E)	0.0164

[P] CCN(C)S(=O)(=O)Nc1ccc(F)c(Oc2ccc3ncc(OC[C@@H]4[C@H]5CN(C(=O)CN6CCC(c7ccc(NC8CCC(=O)NC8=O)cc7F)CC6)C[C@@H]45)nc3c2)c1C#N (stereo partly shown)
[Q] CCN(C)S(=O)(=O)Nc1ccc(F)c(Oc2ccc3ncn([C@H]4CCC5(CCN(C(=O)CN6CCC(c7ccc8c(C9CCC(=O)NC9=O)nn(C)c8c7)CC6)CC5)C4)c(=O)c3c2)c1Cl (stereo partly shown)
[R] N#Cc1c(NS(=O)(=O)C2CCCC2)ccc(F)c1Oc1ccc2ncn(CCC3CCN(C(=O)CN4CCC(c5ccc(NC6CCC(=O)NC6=O)cc5)CC4)CC3)c(=O)c2c1 (stereo not shown)
[S] Cn1nc(N2CCC(=O)NC2=O)c2cc(F)c(N3CCC(O)(CC(=O)N4CCC5(CC4)C[C@@H](n4cnc6ccc(Oc7c(F)ccc(NS(=O)(=O)N8CCC8)c7C#N)cc6c4=O)CO5)CC3)cc21
**Q:** Hey, quick one: sort these by DC50, low to high? Submit the labels in the order that the ranking request calls for.
**A:** P, Q, R, S
(P: 0.018 µM, Q: 0.0345 µM, R: 0.242 µM, S: 9.99 µM)

[P] CCN(C)S(=O)(=O)Nc1ccc(F)c(Oc2ccc3ncn(C4CCC5(CCN(C(=O)CN6CCC(c7ccc(NC8CCC(=O)NC8=O)cc7F)CC6)CC5)C4)c(=O)c3c2C)c1C#N (stereo not shown)
[Q] CCN(C)S(=O)(=O)Nc1ccc(F)c(Oc2ccc3ncn(CCN4CCN(C(=O)CN5CCC(c6ccc(NC7CCC(=O)NC7=O)cc6)CC5)CC4)c(=O)c3c2)c1C#N (stereo not shown)
[R] CN(CCF)S(=O)(=O)Nc1ccc(F)c(Oc2ccc3ncn(-c4cnc(N5CCN(C(=O)CN6CCC(c7ccc(N[C@H]8CCC(=O)NC8=O)cc7F)CC6)CC5)nc4)c(=O)c3c2)c1C#N
**Q:** # rank_down: sort by DC50, max first Submit the labels in the order that the ranking request calls for.
**A:** Q, P, R
